biological target: neuraminidase of avian influenza virus (H9N2) (Influenza A virus, UniProt A9LRT3); assay: biochemical; design: species or system avian influenza virus A/chicken/Korea/01310/2001(H9N2); settings: IC50 of Tamiflu against neuraminidase of avian influenza virus in combination with compound 4
Quantity measured: pIC50
Hey, just a heads up that pIC50 is the negative log base 10 of the concentration in molar.

Exercise: # get_value(readout='pIC50', item= CCOC(=O)C1=C[C@@H](OC(CC)CC)[C@H](NC(C)=O)[C@@H](N)C1 [Tamiflu, oseltamivir phosphate, reference compound] )
Key: 8.83
